Items are presented alongside their recorded pIC50.
target: full-length human PKCι (Homo sapiens, UniProt P41743); construct: Recombinant, full-length human PKCι expressed in Sf21 insect cells is also commercially available; test: PKCι IC50 IMAP assay, full-length PKCι at 150 μM ATP; settings: read-out: IC50 in IMAP assay against full length PKCi at 150 μM ATP
Sequence (P41743 whole entry): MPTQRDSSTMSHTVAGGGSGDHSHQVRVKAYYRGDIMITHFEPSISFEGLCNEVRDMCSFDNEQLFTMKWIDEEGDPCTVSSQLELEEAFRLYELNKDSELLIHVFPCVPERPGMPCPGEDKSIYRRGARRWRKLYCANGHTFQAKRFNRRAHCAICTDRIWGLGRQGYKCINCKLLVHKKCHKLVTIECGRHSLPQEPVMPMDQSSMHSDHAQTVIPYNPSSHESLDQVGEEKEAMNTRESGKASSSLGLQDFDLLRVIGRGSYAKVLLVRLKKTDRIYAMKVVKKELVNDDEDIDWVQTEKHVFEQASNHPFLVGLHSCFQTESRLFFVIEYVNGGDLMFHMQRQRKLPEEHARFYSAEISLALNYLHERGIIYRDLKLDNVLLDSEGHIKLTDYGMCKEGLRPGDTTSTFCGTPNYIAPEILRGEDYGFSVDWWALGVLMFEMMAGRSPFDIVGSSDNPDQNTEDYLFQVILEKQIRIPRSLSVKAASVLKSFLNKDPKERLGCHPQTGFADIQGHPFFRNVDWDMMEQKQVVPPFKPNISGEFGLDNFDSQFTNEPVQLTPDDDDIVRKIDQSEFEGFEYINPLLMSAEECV
pIC50: −log10 of the molar value.

Consider the following illustrative entries.
Fc1cnc(Nc2cc(-c3nc(N4CCNCC4)c4c(C5CCC5)cncc4n3)ccn2)c(F)c1 [Example 783] ... > 7.00
CN[C@H](CNc1nc(-c2ccncc2)nc2cncc(OC)c12)Cc1ccccc1 [Example 41] ... > 7.00

In: Endpoint output: pIC50 of N#Cc1ccnc(Nc2cc(-c3nc(N4CCC(O)CC4)c4c(C5CC5)cncc4n3)ccn2)c1 [Example 482] . Value?
Out: 6.00 to 7.00

In: What pIC50 value was documented for this molecule, CN(C)C(=O)C1CCN(c2nc(-c3ccnc(Nc4c(F)cccc4F)c3)nc3cncc(C4CC4)c23)CC1 [Example 686] ?
Out: 6.00 to 7.00

In: // returns reported pIC50 for input O=C(NCCF)C1CCN(c2nc(-c3ccnc(Nc4c(F)cccc4F)c3)nc3cncc(C4CC4)c23)CC1 [Example 658]
Out: 5.00 to 6.00

In: Entry Fc1cc(C2CCC2)cnc1Nc1cc(-c2nc(N3CCNCC3)c3c(C4CC4)cncc3n2)ccn1 [Example 2013] : reported pIC50 = ?
Out: > 7.00

In: // returns reported pIC50 for input Fc1cccc(Nc2cc(-c3nc(N4CCN[C@@H](C5CC5)C4)c4c(C5CC5)cncc4n3)ccn2)n1 [Example 277]
Out: > 7.00

In: pIC50 lookup needed for c1cc(-c2nc(N3CCNCC3)c3c(C4CC4)cncc3n2)cc(Nc2nc3ccc(C4CC4)cn3n2)n1 [Example 2012] , thanks.
Out: > 7.00

In: # get_value(readout='pIC50', item= COc1cncc2nc(-c3ccnc(Nc4cccc(C)n4)c3)nc(N3CCNCC3)c12 [Example 415] )
Out: > 7.00

In: Give its pIC50 value. Item: Fc1ccc(Nc2cc(-c3nc(N4CCNCC4)c4c(C5CC5)cncc4n3)ccn2)cc1 [Example 594]
Out: > 7.00

In: Fill in the blank: the reported pIC50 of CN1CCCN(c2nc(-c3ccncc3)nc3cnccc23)CC1 [Example 19] is ____.
Out: 4.40 to 5.00

In: Looking for the measured pIC50 of c1cc(-c2nc(N3CCNCC3)c3c(C4CC4)cncc3n2)cc(N[C@H]2C[C@@H]3CC[C@H]2C3)n1 [Example 823] , can you help?
Out: > 7.00

In: # query: pIC50 of entry C[C@H]1CN(c2nc(-c3ccnc(Nc4nc(F)ccc4F)c3)nc3cncc(C4CC4)c23)CCN1 [Example 694]
Out: > 7.00

In: So what's the measured pIC50 for this one? COc1cc(Nc2cc(-c3nc(N4CCNCC4)c4c(C5CC5)cncc4n3)ccn2)ccc1F [Example 627]
Out: > 7.00

In: What value of pIC50 has been recorded for this entry: CCc1cncc2nc(-c3ccncc3)nc(NC[C@@H](N)Cc3ccccc3)c12 [Example 137]
Out: > 7.00

In: What does the data say about its pIC50? Entry: COc1cncc2nc(-c3ccnc(Nc4ccc(C#N)cn4)c3)nc(N3CCNCC3)c12 [Example 353]
Out: > 7.00

In: Param item = CN1CCC(Sc2nc(-c3ccnc(Nc4c(F)cccc4F)c3)nc3cncc(C4CC4)c23)CC1 [Example 2128] ; retrieve measured pIC50.
Out: 6.00 to 7.00

In: # lookup: pIC50 of CN1CCN(c2nccc3c(NC[C@H](N)Cc4ccccc4)nc(-c4ccncc4)nc23)CC1 [Example 127]
Out: 4.40 to 5.00

In: Could you share which pIC50 value was measured for C[C@H]1CN(c2nc(-c3ccnc4[nH]c(C(C)(C)C)cc34)nc3cncc(C4CCC4)c23)CCN1 [Example 2008] ?
Out: > 7.00

In: Requested field: pIC50. Item: Fc1cccc(F)c1Nc1cc(-c2nc(N3CCNCC3)c3c(C(F)(F)F)cncc3n2)ccn1 [Example 2193]
Out: > 7.00

In: Fill in the blank: the reported pIC50 of C[C@H]1CN(c2nc(-c3ccnc(NC4CCN(CC(F)(F)F)CC4)c3)nc3cncc(C4CC4)c23)CCN1 [Example 2049] is ____.
Out: > 7.00

In: Form field: reported pIC50 of CN(c1nc(-c2ccnc(Nc3ncc(F)cc3F)c2)nc2cncc(C3CC3)c12)C1CCNCC1(C)C (stereo not drawn) [Example 2196]
Out: > 7.00

In: Entry Fc1ccc(Nc2cc(-c3nc(N4CCNCC4)c4c(C5CC5)cncc4n3)ccn2)c(F)n1 [Example 671] : reported pIC50 = ?
Out: > 7.00

In: Give its pIC50 value. Item: COc1cncc2nc(-c3ccnc(Nc4cccnc4F)c3)nc(N3CCNCC3)c12 [Example 450]
Out: > 7.00

This collection of values is drawn from patent US9914730B2.
